SYSTEM_TESTED: T1, human SLC34A2 (human, UniProt O95436 1-690)
T1 construct: whole, on cells; also called human solute carrier 34 A2; NaPi2b
T1 sequence (looked up): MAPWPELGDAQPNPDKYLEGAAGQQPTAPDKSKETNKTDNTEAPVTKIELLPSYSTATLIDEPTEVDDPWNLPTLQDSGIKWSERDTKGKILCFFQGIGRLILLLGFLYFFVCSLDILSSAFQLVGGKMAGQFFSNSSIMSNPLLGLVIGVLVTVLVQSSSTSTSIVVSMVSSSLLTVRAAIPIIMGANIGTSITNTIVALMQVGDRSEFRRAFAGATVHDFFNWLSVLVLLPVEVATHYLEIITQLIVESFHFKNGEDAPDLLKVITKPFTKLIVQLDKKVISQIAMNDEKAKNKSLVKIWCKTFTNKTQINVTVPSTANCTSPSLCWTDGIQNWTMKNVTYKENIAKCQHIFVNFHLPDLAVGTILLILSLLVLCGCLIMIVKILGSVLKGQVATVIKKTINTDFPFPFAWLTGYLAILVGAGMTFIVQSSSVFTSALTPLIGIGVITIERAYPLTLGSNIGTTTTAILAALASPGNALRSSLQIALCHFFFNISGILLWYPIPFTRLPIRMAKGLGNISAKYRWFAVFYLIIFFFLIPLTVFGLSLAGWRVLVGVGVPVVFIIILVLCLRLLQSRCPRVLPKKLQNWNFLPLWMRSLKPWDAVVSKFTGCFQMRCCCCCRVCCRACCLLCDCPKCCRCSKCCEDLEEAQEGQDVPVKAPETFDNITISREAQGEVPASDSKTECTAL
EXPERIMENTAL_PROTOCOL: FACS, HEK293/human SLC34A2 cells
# Top values compiled below

- BINDER: "30H9B8F9.p1.z9 hIgG1 (antibody, V domains shown, humanized hIgG1) VH: QVQLVQSGAEVVKPGASVKVSCKTSGYTFTTNNMHWVRQAPGQGLEWIGAIYPGSGATAYNQKFKGRVTLTADKSTSTAYMELSSLRSEATAVYYCARGMYGHGAMDYWGQGTLVTVSS VL: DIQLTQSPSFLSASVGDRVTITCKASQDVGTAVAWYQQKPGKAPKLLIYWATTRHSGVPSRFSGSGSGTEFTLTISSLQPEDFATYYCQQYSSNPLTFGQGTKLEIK"
  Top: "34200 MFI"
- BINDER: "62G10E4G8 VH_P3/VL hIgG1 (antibody, V domains shown, PTM-derisked chimeric, hIgG1; that P3 is the NA version follows from the humanized .p3 chains; also called 62G10E4G8.p3 hIgG1) VH: QVQLQQSGAEVVKPGASVKMSCKASGYTFPSYITHWVKQTPGQGLEWIGAIYPGNADTSYIQKFKGKATLTADKSSSTAYMQLSSLTSEDSAVYYCARGTYGTSAWFTYWGQGTLVTVSA VL: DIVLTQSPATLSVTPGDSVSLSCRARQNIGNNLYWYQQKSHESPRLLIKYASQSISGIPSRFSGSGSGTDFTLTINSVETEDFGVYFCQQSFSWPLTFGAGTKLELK"
  Top: "35700 MFI"
- BINDER: "62G10E4G8.p3.z8 hIgG1 (antibody, V domains shown, humanized hIgG1) VH: QVQLVQSGAEVKKPGASVKVSCKASGYTFPSYITHWVRQAPGQGLEWIGAIYPGNADTSYIQKFKGRVTMTADKSTSTVYMELSSLRSEDTAVYYCARGTYGTSAWFTYWGQGTLVTVSS VL: EIVLTQSPATLSASPGERATLSCRARQNIGNNLYWYQQKPGQSPRLLIKYASQSISGIPSRFSGSGSGTDFTLTISSVQSEDFAVYFCQQSFSWPLTFGAGTKLEIK"
  Top: "31500 MFI"
- BINDER: "30H9B8F9.p1.z6 hIgG1 (antibody, V domains shown, humanized hIgG1) VH: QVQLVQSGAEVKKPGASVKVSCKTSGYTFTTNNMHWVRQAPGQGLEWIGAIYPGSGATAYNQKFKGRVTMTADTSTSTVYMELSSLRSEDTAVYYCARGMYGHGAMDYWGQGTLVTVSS VL: DIQLTQSPSFLSASVGDRVTITCKASQDVGTAVAWYQQKPGKSPKLLIYWATTRHSGVPDRFSGSGSGTEFTFTISSLQPEDFATYFCQQYSSNPLTFGQGTKLEIK"
  Top: "33600 MFI"
- BINDER: "91C9F1.p1 hIgG1 (antibody, V domains shown, PTM-derisked chimeric, hIgG1; also called 91C9F1.pl hIgG1) VH: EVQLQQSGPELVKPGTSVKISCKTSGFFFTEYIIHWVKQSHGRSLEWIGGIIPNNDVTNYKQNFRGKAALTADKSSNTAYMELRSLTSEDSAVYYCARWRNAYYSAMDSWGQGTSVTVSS VL: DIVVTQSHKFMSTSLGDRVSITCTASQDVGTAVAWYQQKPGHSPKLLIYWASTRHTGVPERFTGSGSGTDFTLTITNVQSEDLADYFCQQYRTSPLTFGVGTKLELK"
  Top: "32300 MFI"
- BINDER: "30H9B8F9.p1.z13 hIgG1 (antibody, V domains shown, humanized hIgG1) VH: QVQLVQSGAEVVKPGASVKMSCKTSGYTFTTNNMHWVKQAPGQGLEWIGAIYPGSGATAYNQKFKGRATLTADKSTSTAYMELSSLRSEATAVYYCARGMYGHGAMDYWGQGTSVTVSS VL: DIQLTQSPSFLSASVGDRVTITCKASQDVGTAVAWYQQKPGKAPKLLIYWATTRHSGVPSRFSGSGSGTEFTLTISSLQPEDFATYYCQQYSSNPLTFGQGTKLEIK"
  Top: "33000 MFI"
- BINDER: "30H9B8F9.p1.z5 hIgG1 (antibody, V domains shown, humanized hIgG1) VH: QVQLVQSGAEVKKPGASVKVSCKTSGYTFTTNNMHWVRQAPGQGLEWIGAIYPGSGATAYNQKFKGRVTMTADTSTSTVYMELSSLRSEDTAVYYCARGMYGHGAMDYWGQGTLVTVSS VL: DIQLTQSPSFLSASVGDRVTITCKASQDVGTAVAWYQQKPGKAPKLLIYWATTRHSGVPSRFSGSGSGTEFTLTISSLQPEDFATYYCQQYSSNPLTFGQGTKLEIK"
  Top: "35200 MFI"
- BINDER: "xi30H9B8F9 hIgG1 (antibody, V domains shown, chimeric, hIgG1) VH: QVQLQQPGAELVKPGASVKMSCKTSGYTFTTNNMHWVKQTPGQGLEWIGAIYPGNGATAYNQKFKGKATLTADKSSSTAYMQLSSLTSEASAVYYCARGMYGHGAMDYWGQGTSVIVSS VL: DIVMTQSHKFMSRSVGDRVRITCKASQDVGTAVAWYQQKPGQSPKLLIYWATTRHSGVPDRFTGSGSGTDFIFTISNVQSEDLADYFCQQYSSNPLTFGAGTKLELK"
  Top: "40800 MFI"
- BINDER: "62G10E4G8.p3.z11 hIgG1 (antibody, V domains shown, humanized hIgG1) VH: QVQLVQSGAEVKKPGASVKVSCKASGYTFPSYITHWVKQAPGQGLEWIGAIYPGNADTSYIQKFKGRVTLTADKSTSTAYMELSSLRSEDTAVYYCARGTYGTSAWFTYWGQGTLVTVSS VL: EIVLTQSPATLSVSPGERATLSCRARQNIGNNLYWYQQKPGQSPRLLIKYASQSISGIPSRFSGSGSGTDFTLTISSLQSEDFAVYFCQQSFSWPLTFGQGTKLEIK"
  Top: "31900 MFI"
- BINDER: "91C9F1.p1.z7 hIgG1 (antibody, V domains shown, humanized hIgG1) VH: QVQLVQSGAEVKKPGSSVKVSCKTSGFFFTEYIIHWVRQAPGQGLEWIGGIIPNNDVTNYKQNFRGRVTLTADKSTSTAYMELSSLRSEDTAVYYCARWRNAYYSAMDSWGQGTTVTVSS VL: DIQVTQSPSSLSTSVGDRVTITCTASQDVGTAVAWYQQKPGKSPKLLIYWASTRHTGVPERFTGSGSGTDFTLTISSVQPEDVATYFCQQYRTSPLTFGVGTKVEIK"
  Top: "37400 MFI"
